The measurements presented in this section are drawn from the supplement of paper PMC7877785.

Test: self-splicing fitness, log relative to wild type (ln ratio); higher = more splicing; Tetrahymena group I intron in knt gene, E. coli kanamycin selection, DiMSum; sequences stand for … in CUCUCU…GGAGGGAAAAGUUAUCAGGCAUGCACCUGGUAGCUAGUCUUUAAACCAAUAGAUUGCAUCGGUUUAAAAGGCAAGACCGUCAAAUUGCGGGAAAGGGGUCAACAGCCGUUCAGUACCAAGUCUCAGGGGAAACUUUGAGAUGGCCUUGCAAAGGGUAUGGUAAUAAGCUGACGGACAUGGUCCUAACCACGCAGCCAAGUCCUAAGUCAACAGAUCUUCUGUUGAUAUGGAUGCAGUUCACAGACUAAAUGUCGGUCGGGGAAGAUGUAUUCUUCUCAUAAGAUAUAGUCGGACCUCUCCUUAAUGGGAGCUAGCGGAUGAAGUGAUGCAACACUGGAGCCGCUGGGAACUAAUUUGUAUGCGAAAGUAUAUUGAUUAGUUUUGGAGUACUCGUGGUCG;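 also: selection with 25 µg/mL kanamycin versus none on LB agar overnight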
Conditions: 37 °C
measurement-name: self-splicing fitness (ln)

Consider the sequence `GCGCAGCAAUAUUACGACUG` . State its measured self-splicing fitness (ln).
-1.98

Consider the sequence `UCAUAGCAAUAUUACGGGAC` . State its measured self-splicing fitness (ln).
-3.97

Consider the sequence `AUAAAGCAAUAUUACGGAGG` . State its measured self-splicing fitness (ln).
-1.67

Consider the sequence `CAAUAGCAAUAUUACGGCGA` . State its measured self-splicing fitness (ln).
-2.03

Consider the sequence `AGCUAGCAAUAUUACGGUAC` . State its measured self-splicing fitness (ln).
-1.1

Consider the sequence `UUGCAGCAAUAUUACGGUUG` . State its measured self-splicing fitness (ln).
-2.04

Consider the sequence `AGAUAGCAAUAUUACGCGAU` . State its measured self-splicing fitness (ln).
-2.15

Consider the sequence `AUACAGCAAUAUUACGGCCC` . State its measured self-splicing fitness (ln).
-0.184

Consider the sequence `GGACAGCAAUAUUACGGAAC` . State its measured self-splicing fitness (ln).
-0.102

Consider the sequence `AGGCAGCAAUAUUACGUUAG` . State its measured self-splicing fitness (ln).
-2.14

Consider the sequence `CGGAAGCAAUAUUACGGCCC` . State its measured self-splicing fitness (ln).
0.0512

Consider the sequence `UGAUAGCAAUAUUACGCAGU` . State its measured self-splicing fitness (ln).
-2.51

Consider the sequence `UAACAGCAAUAUUACGAAUU` . State its measured self-splicing fitness (ln).
-1.86

Consider the sequence `UGCCAGCAAUAUUACGAGAC` . State its measured self-splicing fitness (ln).
-2.05

Consider the sequence `UUUUAGCAAUAUUACGGCGU` . State its measured self-splicing fitness (ln).
-0.915

Consider the sequence `AAGUAGCAAUAUUACGCCAC` . State its measured self-splicing fitness (ln).
-2.49

Consider the sequence `UGUUAGCAAUAUUACGUACU` . State its measured self-splicing fitness (ln).
0.344

Consider the sequence `GCCCAGCAAUAUUACGCACC` . State its measured self-splicing fitness (ln).
0.19

Consider the sequence `CCUAAGCAAUAUUACGCUAG` . State its measured self-splicing fitness (ln).
-1.64

Consider the sequence `CCCAAGCAAUAUUACGAAUU` . State its measured self-splicing fitness (ln).
-2.87

Consider the sequence `GCCAAGCAAUAUUACGCGUC` . State its measured self-splicing fitness (ln).
-1.71

Consider the sequence `ACCGAGCAAUAUUACGGCAU` . State its measured self-splicing fitness (ln).
-0.529

Consider the sequence `AUCCAGCAAUAUUACGGGCC` . State its measured self-splicing fitness (ln).
-1.24

Consider the sequence `GGAAAGCAAUAUUACGUGGU` . State its measured self-splicing fitness (ln).
-1.9

Consider the sequence `GGGAAGCAAUAUUACGUGAG` . State its measured self-splicing fitness (ln).
-1.46

Consider the sequence `UCUGAGCAAUAUUACGGGAG` . State its measured self-splicing fitness (ln).
-2.65

Consider the sequence `GUUCAGCAAUAUUACGGGAG` . State its measured self-splicing fitness (ln).
-0.683

Consider the sequence `CUCCAGCAAUAUUACGCACU` . State its measured self-splicing fitness (ln).
-3.09

Consider the sequence `AUCCAGCAAUAUUACGAAGA` . State its measured self-splicing fitness (ln).
-1.64

Consider the sequence `UCCUAGCAAUAUUACGCUUA` . State its measured self-splicing fitness (ln).
-3.22

Consider the sequence `GCGAAGCAAUAUUACGUUAG` . State its measured self-splicing fitness (ln).
-2.35

Consider the sequence `ACGCAGCAAUAUUACGCGCU` . State its measured self-splicing fitness (ln).
-1.31

Consider the sequence `ACCCAGCAAUAUUACGGAAU` . State its measured self-splicing fitness (ln).
-0.0542
